PROTOCOL_SUMMARY: Determination of compound aqueous solubility in M63 media
Type: physicochemical
RECORDED_CONDITIONS: in M63 media at 35 °C
Give t when the value for solubility at 4 h is at least 40 µM. Give f when it is less.

SMILES_REPR: O=C1NC(=O)c2c(NCc3ccc4c(c3)COC4)cccc21
ASSIGNED_LABEL: f
--
SMILES_REPR: O=C1NC(=O)c2c(NCc3cc(Br)cc(O)c3O)ccc(Br)c21
ASSIGNED_LABEL: f
--
SMILES_REPR: Cc1cc(Br)cc(CNc2cccc3c2C(=O)NC3=O)c1O
ASSIGNED_LABEL: f

Query: Can O=C1NC(=O)c2c(NCc3ccc(Br)cc3O)cccc21 be said to have solubility at 4 h at or above 40 µM?
Result: t

Query: Reported solubility at 4 h reaches at least 40 µM for Cc1cccc(CNc2cccc3c2C(=O)NC3=O)c1O ?
Result: t

###

ASSAY_TARGET: recombinant Pa BfrB (Pseudomonas aeruginosa)
Construct: made in house; host or cells: E. coli
Sequence (Q9HY79 whole entry): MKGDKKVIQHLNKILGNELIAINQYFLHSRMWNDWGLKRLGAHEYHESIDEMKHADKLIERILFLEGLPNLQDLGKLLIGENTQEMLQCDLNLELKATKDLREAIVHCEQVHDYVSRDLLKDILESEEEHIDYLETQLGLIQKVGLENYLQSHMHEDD
PROTOCOL_SUMMARY: Dissociation constant (Kd), fluorescence quenching titration of apo Pa BfrB
Format: binding, P. aeruginosa
MEASUREMENT_NAME: Kd (µM)
Supply the numeric figure in µM, leaving out any unit text.

Recorded results for 5 molecules are shown here.
SMILES_REPR: O=C1NC(=O)c2c(NCc3cc(F)ccc3O)cccc21
Kd, µM: 24
--
SMILES_REPR: O=C1NC(=O)c2c(NCc3cc(Br)c(F)cc3O)cccc21
Kd, µM: 2
--
SMILES_REPR: CC(C)(C)c1ccc(O)c(CNc2cccc3c2C(=O)NC3=O)c1
Kd, µM: 1
--
SMILES_REPR: O=C1NC(=O)c2c(NCc3cc(Br)ccc3O)cccc21
Kd, µM: 9
--
SMILES_REPR: O=C1NC(=O)c2c(NCc3cc(Br)cc(F)c3O)cccc21
Kd, µM: 4

Query: Consider the molecule shown here: O=C1NC(=O)c2c(NCc3cc(F)ccc3O)ccc(Br)c21 What is its recorded Kd?
Result: 7

Query: For the molecule shown here, O=C1NC(=O)c2c(NCc3ccc(Br)cc3O)cccc21 , give the reported Kd.
Result: 13

Query: Bench note: what Kd did O=C1NC(=O)c2c(NCc3cc(Cl)c(O)cc3O)cccc21 show?
Result: 77

###

PROTOCOL_SUMMARY: Determination of compound aqueous solubility in M63 media
Assay type: physicochemical
RECORDED_CONDITIONS: in M63 media at 35 °C
MEASUREMENT_NAME: solubility at 4 h (µM)
Note: unit µM is implicit; provide only the numeric part.

Solved cases below.
SMILES_REPR: O=C1NC(=O)c2c(NCc3c(O)cccc3F)cccc21
RESULT_UNITS: µM
solubility at 4 h: 150
--
SMILES_REPR: O=C1NC(=O)c2c(NCc3cc(Br)cc(F)c3O)cccc21
RESULT_UNITS: µM
solubility at 4 h: 40
--
SMILES_REPR: O=C1NC(=O)c2c(NCc3cccc(Br)c3O)cccc21
RESULT_UNITS: µM
solubility at 4 h: 40
--
SMILES_REPR: O=C1NC(=O)c2c(NCc3c(O)cccc3Br)cccc21
RESULT_UNITS: µM
solubility at 4 h: 60
--
SMILES_REPR: O=C1NC(=O)c2c(NCc3cccc(Cl)c3O)cccc21
RESULT_UNITS: µM
solubility at 4 h: 80

Query: Record request: solubility at 4 h value, item O=C1NC(=O)c2c(NCc3cc(Br)cc(O)c3O)cccc21
Result: 60

Query: Which solubility at 4 h is reported for this molecule? Cc1cc(CNc2cccc3c2C(=O)NC3=O)c(O)cc1Br
Result: 20

Query: Suppose we examine the molecule O=C1NC(=O)c2c(NCc3c(O)cccc3Cl)cccc21 ; what solubility at 4 h value has been reported?
Result: 60

###

ASSAY_TARGET: recombinant Pa BfrB (Pseudomonas aeruginosa)
PROTOCOL_SUMMARY: Dissociation constant (Kd), fluorescence quenching titration of apo Pa BfrB
Listed here: items and their measured Kd.
Number only, in µM; omit the unit.

MOLECULE: O=C1NC(=O)c2c(NCc3cccc4c3CCN4)cccc21 [SB-17-140]
RESULT_UNITS: µM
Kd: 37
--
MOLECULE: O=C1NC(=O)c2c(NCc3cc(Cl)ccc3O)cccc21 [KM-5-25]
RESULT_UNITS: µM
Kd: 10
--
MOLECULE: O=C1NC(=O)c2c(NCc3cccc(Cl)c3O)cccc21 [KM-5-30]
RESULT_UNITS: µM
Kd: 11
--
MOLECULE: O=C1NC(=O)c2c(NCc3cccc(F)c3O)cccc21 [EB-5-80]
RESULT_UNITS: µM
Kd: 49
--
MOLECULE: O=C1NC(=O)c2c(NCc3cc(Cl)ccc3O)ccc(Br)c21 [SB-16-51]
RESULT_UNITS: µM
Kd: 13

Consider the record given below.
Query: Which value of Kd has been reported for O=C1NC(=O)c2c(NCc3ccc4c(c3)COC4)cccc21 [SB-17-80] in the records?
Result: 11

###

PROTOCOL_SUMMARY: Determination of compound aqueous solubility in M63 media
Type: physicochemical
RECORDED_CONDITIONS: in M63 media at 35 °C
# maps each entry to its solubility at 4 h
Just the number in µM, nothing appended.

# count of solved cases: 3
SMILES_REPR: Cn1ccnc1CNc1cccc2c1C(=O)NC2=O
solubility at 4 h (µM): 100

SMILES_REPR: O=C1NC(=O)c2c(NCc3cc(F)ccc3O)ccc(Br)c21
solubility at 4 h (µM): 40

SMILES_REPR: Cc1ccc(CNc2cccc3c2C(=O)NC3=O)c(O)c1
solubility at 4 h (µM): 80

// moving on: another record for solubility at 4 h
Query: Any idea what solubility at 4 h was measured for O=C1NC(=O)c2c(NCc3cc(Br)c(F)cc3O)cccc21 ?
Result: 30
